# System: TA100, TA1535, TA98, TA1537, and WP2uvrA
# assay-remarks: Ames test (preincubation method), five standard strains, overall judgement
# experimental-setup: presence and absence of S9 mix
observable: Ames test result (in words, text)

# example entries with known answers
INSERT INTO measurements (molecule, reading) VALUES
  ('c1cnc2ccncc2c1', 'not mutagenic'),
  ('c1ccc2cnncc2c1', 'non-mutagenic'),
  ('c1ccc2nccnc2c1', 'non-mutagenic'),
  ('c1cc2cnccc2cn1', 'non-mutagenic'),
  ('c1cc2ccncc2cn1', 'non-mutagenic'),
  ('c1cnc2[nH]ncc2c1 [Pyrazolo[3,4-b]pyridine]', 'non-mutagenic'),
  ('c1ccc2[nH]cnc2c1', 'not mutagenic'),
  ('c1ccc2cnccc2c1', 'non-mutagenic');

Task: Which value of Ames test result (in words, text) has been reported for c1ccc2ncncc2c1 in the records?
Result: non-mutagenic

Task: Now try c1ncc2[nH]ccc2n1 [5H-Pyrrolo[3,2-d]pyrimidine] .
Result: non-mutagenic
